measured.target: human GCGR (Homo sapiens)
Construct: expressed in transfected cells; host or cells: HEK293 (hGluc-1HEK), pcDNA3.1, G418 selection
Sequence (P47871 26-477): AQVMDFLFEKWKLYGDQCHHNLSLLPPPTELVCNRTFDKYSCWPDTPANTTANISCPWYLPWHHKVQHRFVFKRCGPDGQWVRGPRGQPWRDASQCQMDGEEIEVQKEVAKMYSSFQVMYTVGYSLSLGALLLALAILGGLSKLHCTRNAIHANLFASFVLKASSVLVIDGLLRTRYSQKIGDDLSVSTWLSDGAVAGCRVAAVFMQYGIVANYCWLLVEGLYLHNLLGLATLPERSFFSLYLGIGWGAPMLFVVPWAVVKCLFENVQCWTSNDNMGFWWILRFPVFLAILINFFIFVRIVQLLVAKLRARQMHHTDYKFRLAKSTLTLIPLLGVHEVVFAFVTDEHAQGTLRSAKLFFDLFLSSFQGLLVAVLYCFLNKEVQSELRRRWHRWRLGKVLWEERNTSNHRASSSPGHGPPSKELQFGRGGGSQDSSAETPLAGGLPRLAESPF
test.description: Cellular functional assay, cAMP readout (glucagon-stimulated cAMP, LANCE TR-FRET)
Assay type: cell-based
measurement.conditions: HEK293 cells stably expressing full-length human GCGR; glucagon 100 pM; IC50 converted to Ki; read-out: Inhibition of cAMP Ki
List of pKi values.
pKi is defined as minus the log10 of a concentration measured in mol/L.

Known pKi results, listed for orientation:
Cc1cc(Cl)ccc1-c1ccc2nn(C(CC(C)C)c3ccc(C(=O)NCCC(=O)O)nc3)cc2c1 (stereo not drawn) = 6.57
Cc1cc(Cl)ccc1-c1ccc2nn(C(CCC3CCCCC3)c3ccc(C(=O)NCCC(=O)O)cc3)cc2c1 (stereo not drawn) = 7.43
CCCC(c1ccc(C(=O)NCCC(=O)O)cc1)n1ncc2cc(-c3ccc(C(F)(F)F)cc3)ccc21 (stereo not drawn) = 6.52
Cc1cc(Cl)ccc1-c1ccc2c(cnn2C(CC(C)C)c2ccc(C(=O)NCCC(=O)O)cc2)c1 (stereo not drawn) = 6.68
CC(C)(F)CC(c1ccc(C(=O)NCCC(=O)O)cc1)n1ncc2cc(-c3ccc(C(F)(F)F)cc3)ccc21 (stereo not drawn) = 6.37
Cc1cc(Cl)ccc1-c1ccc2c(cnn2C(CC(C)(C)C)c2ccc(C(=O)NCCC(=O)O)nc2)c1 (stereo not drawn) = 6.68
CC(C)CC(c1ccc(C(=O)NCCC(=O)O)cc1)n1ncc2c(Cl)c(-c3ccc(C(F)(F)F)cc3Cl)ccc21 (stereo not drawn) = 6.94
CC(C)CC(c1ccc(C(=O)NCCC(=O)O)nc1)n1cc2cc(-c3cc4ccccc4o3)ccc2n1 (stereo not drawn) = 6.87

Ask | Would you mind telling me what pKi value was observed for CC(C)CC(c1ccc(C(=O)NCCC(=O)O)cc1)n1ncc2cc(-c3ccc4cnn(C)c4c3)ccc21 (stereo not drawn) ?
Reply | 6.12

Ask | Would you mind telling me what pKi value was observed for CCCCCCC(c1ccc(C(=O)NCCC(=O)O)nc1)n1ncc2cc(-c3ccc(C(F)(F)F)cc3)ccc21 (stereo not drawn) ?
Reply | 6.81

Ask | Would you mind telling me what pKi value was observed for CC(C)CC(c1ccc(C(=O)NCCC(=O)O)cc1)n1ncc2cc(-c3ccc(Cl)cc3Cl)ccc21 (stereo not drawn) ?
Reply | 6.72

Ask | Would you mind telling me what pKi value was observed for CC(C)CC(c1ccc(C(=O)NCCC(=O)O)cc1)n1ncc2c(Cl)c(-c3ccc(C(F)(F)F)cc3)ccc21 (stereo not drawn) ?
Reply | 6.61

* * *

List of Ki values.
measured.target: human GCGR (Homo sapiens)
test.description: Cellular functional assay, cAMP readout (glucagon-stimulated cAMP, LANCE TR-FRET)
measurement.conditions: HEK293 cells stably expressing full-length human GCGR; glucagon 100 pM; IC50 converted to Ki; read-out: Inhibition of cAMP Ki

Known Ki results, listed for orientation:
CC(C)CC(c1ccc(C(=O)NCCC(=O)O)nc1)n1ncc2cc(-c3cc(Cl)cc(Cl)c3)ccc21 (stereo not drawn) = > 2600 nM
CC(C)CC(c1ccc(C(=O)NCCC(=O)O)cc1)n1ncc2cc(-c3cccnc3)ccc21 (stereo not drawn) = > 5200 nM

Shifting focus to the compound that follows.
Ask | Find Ki (human GCGR (Homo sapiens)) for the entry COc1ccc2cc(-c3ccc4nn(C(CC(C)C)c5ccc(C(=O)NCCC(=O)O)cc5)cc4c3)ccc2c1 (stereo not drawn)
Reply | > 1300 nM
